The reported numbers originate from patent US20260132208A1.

target: T1, pm1 (sulfated tyrosine(s) among Y15, Y16, Y17; which ones is not told (the underlining of Table 1 is lost in the text)); assay: ELISA on coated peptide [cont.]
T1 construct: also called sulfated CCR8 N-terminal peptide pm1
T1 sequence (peptide, as listed by the source): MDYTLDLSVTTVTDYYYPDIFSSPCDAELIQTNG
quantity_measured: binding result

>>> result("anti-CCR8 mAb 1-19 (antibody, human IgG1, kappa, V domains shown, Humanized mAb, human IgG1 / kappa) VH: EVQLVESGGGLVQPGRSLRLSCTASGFTFNTYAMNWVRQAPGKGLEWVARIRSKSNNYATYYAASVKGRFTISRDDSKSIAYLQMNSLKTEDTAVYYCVRGREAYYRYDGGYYAMDVWGQGTTVTVSS VL: DIVMTQAAPSLPVTPGESASISCRSSKSLLHSNGNTYLYWFLQKPGQSPQLLIYRMSNLASGVPDRFSGSGSGTAFTLKISRVEAEDVGVYYCMQHLEYPFTFGSGTKLEIKR")
"binds"
>>> result("anti-CCR8 mAb 1-6 (antibody, V domains shown, Murine hybridoma mAb) VH: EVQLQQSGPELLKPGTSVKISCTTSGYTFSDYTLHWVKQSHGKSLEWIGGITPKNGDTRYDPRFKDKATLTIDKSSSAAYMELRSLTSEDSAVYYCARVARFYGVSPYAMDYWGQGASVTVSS VL: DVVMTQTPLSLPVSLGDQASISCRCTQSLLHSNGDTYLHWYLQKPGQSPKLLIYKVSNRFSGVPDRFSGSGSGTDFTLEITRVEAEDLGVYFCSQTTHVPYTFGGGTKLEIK")
"binds"
>>> result("anti-CCR8 mAb 1-5 (antibody, V domains shown, Murine hybridoma mAb) VH: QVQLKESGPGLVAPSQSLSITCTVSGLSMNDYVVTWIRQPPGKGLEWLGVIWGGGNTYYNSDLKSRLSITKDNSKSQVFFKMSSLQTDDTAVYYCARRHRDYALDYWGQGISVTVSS VL: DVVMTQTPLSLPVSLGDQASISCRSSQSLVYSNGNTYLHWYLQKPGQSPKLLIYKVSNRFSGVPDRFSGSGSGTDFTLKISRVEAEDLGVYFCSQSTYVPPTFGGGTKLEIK")
"binds"
